Molecular target: Protein kinase C gamma type (Homo sapiens);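 further: values are mean percent inhibition of PKC gamma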
Settings: at 0.1 µM
ENDPOINT: inhibition (%)
Give your result in % as a bare value.

Query: inhibition; subject: COC(=O)Nc1nc2cc(Oc3ccc(NC(=O)Nc4cccc(Br)c4)cc3)ccc2[nH]1
Reply: -0.79

Query: Would you kindly repeat that for Nc1nccc(C#Cc2cncnc2Nc2ccc(OCc3cccc(F)c3)c(Cl)c2)n1 ?
Reply: 5

Query: Would you kindly repeat that for O=C(Nc1ccc(Oc2ccc3[nH]c(NC(=O)c4ccco4)nc3c2)cc1)Nc1cc(C(F)(F)F)ccc1F ?
Reply: 2.16

Query: Would you kindly repeat that for CCS(=O)(=O)c1ccc(OC)c(Nc2ncc(-c3cccc(OC)c3)o2)c1 ?
Reply: 2.11

Query: Would you kindly repeat that for CCS(=O)(=O)c1ccc(OC)c(Nc2nccc(N(C)c3ccc4c(C)n[nH]c4c3)n2)c1 ?
Reply: 0.63

Query: Would you kindly repeat that for COc1ccc(-c2nn3ncccc3c2-c2ccnc(Nc3cccc(C(F)(F)F)c3)n2)cc1 ?
Reply: 2.97

Query: Would you kindly repeat that for CC(C)c1ccc(Nc2nccc(-c3cnn4ncccc34)n2)cc1 ?
Reply: 1.93

Query: Would you kindly repeat that for CC(C)c1ccc2c(c1)NC(=O)/C2=N/Nc1ccc(S(N)(=O)=O)cc1 ?
Reply: -0.1

Query: Would you kindly repeat that for Cc1ccc(O)cc1Nc1ccnc2ccc(S(C)(=O)=O)cc12 ?
Reply: 0.83

Query: Would you kindly repeat that for NS(=O)(=O)c1cccc(Nc2cc(-c3ccc(F)cc3)n[nH]2)c1 ?
Reply: 4.38

###

Assignment: determine reported inhibition for the given compounds.
Target: Casein kinase I isoform alpha (Homo sapiens);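 further: each value is a mean percent inhibition of the kinase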
Conditions: at 1 µM
Give your result in % as a bare value.

Query: inhibition; subject: NS(=O)(=O)c1ccc(N/N=C2\C(=O)Nc3ccc(Cl)cc32)cc1
Reply: 4.21

Query: Would you kindly repeat that for FC(F)(F)c1ccc(-c2nn3ncccc3c2-c2ccnc(Nc3ccc4c(c3)OCCO4)n2)cc1 ?
Reply: 4.54

Query: Would you kindly repeat that for C[C@@H](Oc1cc(-n2cnc3ccc(OCC4CCN(C)CC4)cc32)sc1C(N)=O)c1ccccc1C(F)(F)F ?
Reply: -1.43

Query: Would you kindly repeat that for Cc1ccc(NC(=O)CC2CC2)cc1-c1ccc(C(=O)NCC2CC2)cc1 ?
Reply: 3.9

Query: Would you kindly repeat that for CS(=O)(=O)CCNCc1nc(-c2ccc3ncnc(Nc4ccc(OCc5cccc(C(F)(F)F)c5)cc4)c3c2)cs1 ?
Reply: 4.64

Query: Would you kindly repeat that for c1ccc(Nc2ncc(-c3ccccc3)o2)cc1 ?
Reply: 7.73

Query: Would you kindly repeat that for Cc1ccc2c(-c3ccnc(Nc4ccc5c(c4)OCCO5)n3)c(-c3ccc(C(F)(F)F)cc3)nn2n1 ?
Reply: -3.1

Query: Would you kindly repeat that for Nc1nccc(-c2c(-c3ccc(F)cc3)nn3cc(C(F)(F)F)ccc23)n1 ?
Reply: 10.8

###

Assignment: determine reported inhibition for the given molecules.
Biological target: Cyclin-dependent kinase 5 (Homo sapiens) (UniProt Q00535);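 further: mean value of inhibition, with the enzyme tested as CDK5/p35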
Sequence (Q00535 whole entry, looked up): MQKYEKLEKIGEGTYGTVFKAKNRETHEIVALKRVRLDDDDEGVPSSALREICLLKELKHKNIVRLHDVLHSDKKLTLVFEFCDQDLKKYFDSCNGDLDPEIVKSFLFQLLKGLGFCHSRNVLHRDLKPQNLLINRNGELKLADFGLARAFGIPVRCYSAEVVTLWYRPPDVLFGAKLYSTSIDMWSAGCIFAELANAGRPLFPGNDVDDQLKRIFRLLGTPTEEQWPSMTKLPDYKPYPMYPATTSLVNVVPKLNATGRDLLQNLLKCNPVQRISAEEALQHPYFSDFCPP
Settings: at 1 µM
Give your result in % as a bare value.

Query: inhibition; subject: COc1ccc(-c2nn3ncccc3c2-c2ccnc(Nc3cccc(C(F)(F)F)c3)n2)cc1
Reply: 1.77

Query: Would you kindly repeat that for COc1cccc(-n2nc(C)c3c(N/N=C(\C)c4ccncc4)ncnc32)c1 ?
Reply: 5.69

Query: Would you kindly repeat that for CCOc1nccc2c1nc(-c1nonc1N)n2CC ?
Reply: 1.13

Query: Would you kindly repeat that for COc1cccc(-n2ncc3c(N/N=C/c4ccc(C)cc4)ncnc32)c1 ?
Reply: 6.59

Query: Would you kindly repeat that for O=C1Nc2ccc(-c3cccnc3)cc2C1=Cc1cc(Br)c(O)c(Br)c1 ?
Reply: 1.79

Query: Would you kindly repeat that for COc1cc2ncn(-c3cc(OCc4ccccc4S(C)(=O)=O)c(C#N)s3)c2cc1OC ?
Reply: 3.42

Query: Would you kindly repeat that for CS(=O)(=O)Nc1cccc(-c2ccc3c(NC(=O)C4CC4)n[nH]c3c2)c1 ?
Reply: 2.86

Query: Would you kindly repeat that for Cc1ccc2c(-c3ccnc(Nc4ccc5c(c4)OCCO5)n3)c(-c3ccc(C(F)(F)F)cc3)nn2n1 ?
Reply: 1.41

Query: Would you kindly repeat that for O=S(=O)(CCOCc1ccc(-c2ccc3ncnc(Nc4ccc(OCc5cccc(F)c5)c(Cl)c4)c3c2)o1)c1ccccc1 ?
Reply: 5.68

Query: Would you kindly repeat that for Nc1nccc(-c2c(-c3ccc(F)cc3)ncn2CCCN2CCOCC2)n1 ?
Reply: 0.47

Query: Would you kindly repeat that for Nc1nccc(-c2c(-c3ccc(F)cc3)nn3cc(C(F)(F)F)ccc23)n1 ?
Reply: -0.54

Query: Would you kindly repeat that for Nc1ccc(C#Cc2cncnc2Nc2ccc(OCc3cccc(F)c3)c(Cl)c2)cc1 ?
Reply: 1.65

Query: Would you kindly repeat that for COc1ccc2ncnc(Nc3ccc(OCc4ccccc4)cc3)c2c1 ?
Reply: 0.72

Query: Would you kindly repeat that for COc1cc(/C=N/Nc2ncnc3c2cnn3C(C)C)ccc1O ?
Reply: 46.2

Query: Would you kindly repeat that for Cc1ccc(C(=O)NC2CC2)cc1-c1ccc2[nH]ncc2c1 ?
Reply: 2.44

Query: Would you kindly repeat that for NC(=O)c1cccc(Nc2nccc(Nc3cccc(F)c3)n2)c1 ?
Reply: 3.99

Query: Would you kindly repeat that for Cc1ccc(Nc2ccnc(Nc3cccc(C(N)=O)c3)n2)cc1O ?
Reply: 1.46

Query: Would you kindly repeat that for CN(C)C(=O)O[C@@H]1CN[C@@H](C#Cc2cc3ncnc(Nc4ccc(OCc5cccc(F)c5)c(Cl)c4)c3s2)C1 ?
Reply: 1.24

Query: Would you kindly repeat that for FC(F)(F)c1ccc(-c2nn3ncccc3c2-c2ccnc(Nc3ccc4c(c3)OCCO4)n2)cc1 ?
Reply: 3.8

Query: Would you kindly repeat that for COC(=O)Nc1nc2cc(Oc3ccc(NC(=O)Nc4cccc(Br)c4)cc3)ccc2[nH]1 ?
Reply: 1.22

Query: Would you kindly repeat that for OCc1ccc(-c2nc(-c3ccccn3)c(-c3ccc4c(c3)OCO4)[nH]2)cc1 ?
Reply: 1.21
